- subject-of-test: hO44 Receptor (Homo sapiens)
- study-conditions: Ki (nM) ± S.D., hO44 Receptor
measured-property: Ki (nM)
Report as a plain number; the unit nM is understood.

molecule: CCCN1CCCC(c2cccc(O)c2)C1 (single isomer, unassigned; (-)) [(−)-3-PPP]
subject-of-test: hO44 Receptor (Homo sapiens)
measured-property: Ki
result-number: 12.2

// moving on: another record for Ki
Input CCCN1CCCC(c2cccc(O)c2)C1 (single isomer, unassigned; (+)) [(+)-3-PPP] . Output Ki: 12

* * *

Property: Intrinsic Activity; scope: individual compounds
- subject-of-test: hO44 Receptor (Homo sapiens)
- study-conditions: hO44 Receptor; calculated from the Low/High ratio
Report as a plain number; the unit % is understood.

Worked examples, 5 compounds total:
compound: CN1CCc2cccc3c2[C@@H]1Cc1ccc(O)c(O)c1-3 [(+)-Apo]
result-number: 55
//
compound: CCCN(CCc1cccs1)[C@H]1CCc2c(O)cccc2C1 [(−)-N-0437]
result-number: 88
//
compound: CCCN1CCc2cccc3c2[C@@H]1Cc1ccc(O)c(O)c1-3 [(+)-NPA]
result-number: 58
//
compound: CCCN1CCc2cccc3c2[C@H]1Cc1ccc(O)c(O)c1-3 [(−)-NPA]
result-number: 57
//
compound: CCCN(CCc1cccs1)C1CCc2c(O)cccc2C1 (single isomer, unassigned; (+)) [(+)-N-0437]
result-number: 72

Input CN1CCc2cccc3c2[C@H]1Cc1ccc(O)c(O)c1-3 [(−)-Apo] . Output Intrinsic Activity: 80

Input CCCN1CCCC(c2cccc(O)c2)C1 (single isomer, unassigned; (+)) [(+)-3-PPP] . Output Intrinsic Activity: 96

* * *

Property: Ki; scope: individual molecules
- subject-of-test: hO3 Receptor (Homo sapiens)
- Sequence (P14416 whole entry): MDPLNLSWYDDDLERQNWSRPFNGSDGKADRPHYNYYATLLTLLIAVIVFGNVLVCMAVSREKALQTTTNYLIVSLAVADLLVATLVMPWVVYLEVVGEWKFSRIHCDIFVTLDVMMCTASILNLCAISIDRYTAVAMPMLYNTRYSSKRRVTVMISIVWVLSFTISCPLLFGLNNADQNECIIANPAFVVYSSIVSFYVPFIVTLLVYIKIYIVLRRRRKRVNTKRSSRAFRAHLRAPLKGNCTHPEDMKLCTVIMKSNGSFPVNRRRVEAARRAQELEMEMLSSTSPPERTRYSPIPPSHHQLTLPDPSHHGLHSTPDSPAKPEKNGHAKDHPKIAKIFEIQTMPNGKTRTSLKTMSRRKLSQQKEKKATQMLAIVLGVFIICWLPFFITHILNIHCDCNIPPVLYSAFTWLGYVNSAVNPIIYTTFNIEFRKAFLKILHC
- study-conditions: read-out: Ki (nM) ± S.D

molecule: CCCN(CCc1cccs1)[C@H]1CCc2c(O)cccc2C1 [(−)-N-0437]
subject-of-test: hO3 Receptor (Homo sapiens)
Ki: 0.08 nM

// moving on: another record for Ki
Input CCCN(CCc1cccs1)C1CCc2c(O)cccc2C1 (single isomer, unassigned; (+)) [(+)-N-0437] . Output Ki: 4.8 nM

* * *

- subject-of-test: hD21 Receptor (Homo sapiens)
- Sequence (P14416 whole entry): as above
- protocol-summary: Affinity and intrinsic activity of partial dopamine agonists, Table 3
- study-conditions: read-out: Ki (HiAg State), high affinity agonist state
measured-property: pKi
Conceptually, pKi converts a concentration in mol/L into minus its log10.

Input CN1C[C@H](CN2CC(=O)NC(=O)C2)C=C2c3cccc4[nH]cc(c34)C[C@H]21 . Output pKi: 9.40

* * *

- System: hO3 Receptor (Homo sapiens)
- study-conditions: calculated from the Low/High ratio
Property: Intrinsic Activity; scope: individual compounds
Report as a plain number; the unit % is understood.

compound: CCCN1CCc2cccc3c2[C@H]1Cc1ccc(O)c(O)c1-3 [(−)-NPA]
subject-of-test: hO3 Receptor (Homo sapiens)
Intrinsic Activity, %: 100
//
compound: CCCN(CCc1cccs1)[C@H]1CCc2c(O)cccc2C1 [(−)-N-0437]
subject-of-test: hO3 Receptor (Homo sapiens)
Intrinsic Activity, %: 94
//
compound: CCCN1CCc2cccc3c2[C@@H]1Cc1ccc(O)c(O)c1-3 [(+)-NPA]
subject-of-test: hO3 Receptor (Homo sapiens)
Intrinsic Activity, %: 61
//
compound: CCCN1CCCC(c2cccc(O)c2)C1 (single isomer, unassigned; (-)) [(−)-3-PPP]
subject-of-test: hO3 Receptor (Homo sapiens)
Intrinsic Activity, %: 46
//
compound: CCCN1CCCC(c2cccc(O)c2)C1 (single isomer, unassigned; (+)) [(+)-3-PPP]
subject-of-test: hO3 Receptor (Homo sapiens)
Intrinsic Activity, %: 81

Input CCCN(CCc1cccs1)C1CCc2c(O)cccc2C1 (single isomer, unassigned; (+)) [(+)-N-0437] . Output Intrinsic Activity: 48

* * *

Property: Ki; scope: individual molecules
- subject-of-test: hO44 Receptor (Homo sapiens, UniProt P21917)
- study-conditions: read-out: Ki (nM) ± S.D.; hO44 Receptor
Report as a plain number; the unit nM is understood.

Worked examples, 3 molecules total:
molecule: CCCN1CCc2cccc3c2[C@H]1Cc1ccc(O)c(O)c1-3 [(−)-NPA]
unit: nM
result-number: 0.6

molecule: CCCN(CCc1cccs1)C1CCc2c(O)cccc2C1 (single isomer, unassigned; (+)) [(+)-N-0437]
unit: nM
result-number: 7.7

molecule: CCCN1CCc2cccc3c2[C@@H]1Cc1ccc(O)c(O)c1-3 [(+)-NPA]
unit: nM
result-number: 2.3

// moving on: another record for Ki
Simply: CCCN(CCc1cccs1)[C@H]1CCc2c(O)cccc2C1 [(−)-N-0437] , hO44 Receptor (Homo sapiens, UniProt P21917), Ki = 1.1

* * *

- subject-of-test: hD47 (Homo sapiens)
- Sequence (P21917 1-419): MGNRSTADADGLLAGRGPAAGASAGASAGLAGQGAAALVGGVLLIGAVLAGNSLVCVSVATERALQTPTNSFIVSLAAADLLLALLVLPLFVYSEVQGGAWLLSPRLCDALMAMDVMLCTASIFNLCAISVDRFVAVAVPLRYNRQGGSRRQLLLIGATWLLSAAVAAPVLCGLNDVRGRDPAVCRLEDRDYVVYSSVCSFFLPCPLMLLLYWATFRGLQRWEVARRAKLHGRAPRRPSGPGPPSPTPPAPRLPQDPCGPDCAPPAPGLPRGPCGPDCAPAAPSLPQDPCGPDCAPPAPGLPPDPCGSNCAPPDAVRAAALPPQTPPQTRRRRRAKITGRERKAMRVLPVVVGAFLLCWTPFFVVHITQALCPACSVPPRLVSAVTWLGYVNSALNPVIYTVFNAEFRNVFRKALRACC
measured-property: pKi
Conceptually, pKi converts a concentration in mol/L into minus its log10.

Simply: CCCN1CCCC(c2cccc(O)c2)C1 (single isomer, unassigned; (-)) [(−)-3-PPP] , hD47 (Homo sapiens), pKi = 7.84

* * *

- subject-of-test: hD42 (Homo sapiens, UniProt P21917, DEL265-296)
- protocol-summary: biochemical
measured-property: Ki (µM)
Report as a plain number; the unit µM is understood.

Simply: CCCN1CCCC(c2cccc(O)c2)C1 (single isomer, unassigned; (-)) [(−)-3-PPP] , hD42 (Homo sapiens, UniProt P21917, DEL265-296), Ki = 0.0309
